Just for reference, ChEMBL document CHEMBL1201862 is where these values come from.

Test system: HCT-116
Assay: NCI tumour cell line growth inhibition, 48 h
Activity calls are given as the source filed them. Cut-off read from the data, not from the text of the source: active = GI50 up to about 1.1 µM and inactive = higher.
Parameter GI50: see the listing below.
MEASURED_METRIC: GI50

* Nc1nc(N)c2c3c(cnc2n1)CC(c1ccccc1)CC3 (stereo not drawn) | 2.86 µM (inactive)
* C=CCN1C(=O)C[C@H](Cc2ccccc2)NC(=O)C[C@H](Cc2ccccc2)N(CC=C)C(=O)C[C@H](Cc2ccccc2)NC(=O)C[C@@H]1Cc1ccccc1 | 14.8 µM (inactive)
* CCOC(=O)/C(=C/c1ccc(OC)cc1)N(CC)CC | > 100 µM (inactive)
* Cc1ccc([N+](=O)[O-])cc1S(=O)(=O)Nc1ccc(C2=NN(S(=O)(=O)c3cc([N+](=O)[O-])ccc3C)C(c3ccccc3)C2)cc1 (stereo not drawn) | 18.5 µM (inactive)
* O=C1CSC2(CC(/C=C/C=C/c3ccccc3)=NN2c2cccc(S(=O)(=O)O)c2)N1c1nc2ccccc2s1 (stereo not drawn) | 46.5 µM (inactive)
* COc1c(N2CCCCC2)c2c(=O)c3ccccc3oc2c2cc(C)oc12 | 2.34 µM (inactive)
* O=S(=O)(O)c1cccc2ccc(O)c(/N=N\c3ccc(S(=O)(=O)c4ccc(/N=N/c5c(O)ccc6cccc(S(=O)(=O)O)c56)cc4)cc3)c12 | > 100 µM (inactive)
* CC/C=C\C=C/C(=O)N/C=C/CCC | 38.9 µM (inactive)

====

System: OVCAR-3
Experiment: NCI tumour cell line growth inhibition, 48 h
Activity calls are given as the source filed them. Rule as the data show it: active = GI50 up to about 1.1 µM and inactive = higher.
MEASURED_METRIC: GI50

• COc1cc(CN(C)N2C(=O)c3cccc4cc([N+](=O)[O-])cc(c34)C2=O)cc(OC)c1OC = > 100 µM (inactive)
• C=CC[P@]1(=O)O[C@H](c2ccccc2)[C@H](C)N1C = > 100 µM (inactive)
• O=C1/C(=C/c2cccc(Cl)c2)CCCc2ccccc21 = 23.7 µM (inactive)
• CC(=O)O[C@H]1C(=O)[C@@]2(C)C(C(OC(=O)c3ccccc3)[C@]3(O)C[C@H](OC(=O)C(OC(=O)CCCC(=O)NCCCN(C)C)C(NC(=O)c4ccccc4)c4ccccc4)C(C)=C1C3(C)C)C1(OC(C)=O)COC1C[C@@H]2O (some centres undefined) = < 0.01 µM (active)

====

Tested on: SF-268
Experiment: NCI tumour cell line growth inhibition, 48 h
Active and inactive are the calls of the source. Cut-off read from the data, not from the text of the source: active = GI50 up to about 1.1 µM and inactive = higher.
Parameter GI50: see the listing below.
MEASURED_METRIC: GI50

- O=C1CSC(c2ccccc2)N1c1ccc(-n2c(-c3ccccc3)nc3ccccc3c2=O)cc1 (stereo not given): 96.8 µM (inactive)
- CC(C)NC(NC(C)C)=C(S(=O)(=O)C(F)(F)C(F)(F)C(F)(F)C(F)(F)F)S(=O)(=O)C(F)(F)C(F)(F)C(F)(F)C(F)(F)F: > 100 µM (inactive)
- Clc1ccc(COC(Cn2ccnc2)c2ccc(Cl)cc2Cl)cc1 (stereo not given) [ECONAZOLE NITRATE]: 14.7 µM (inactive)
- COc1ccc2c(c1)CCN1CCCc3ccccc3C21 (stereo not given): 36 µM (inactive)
- COc1cc(N(CCC#N)CCC#N)ccc1/C=N\NC(=O)c1ccc(C)cc1: > 100 µM (inactive)

====

For HCT-15, measured GI50 is reported for the entries below.
MEASURED_METRIC: GI50

* CCOC(=O)C(C)OC(=O)c1ccc(C)cc1 (stereo unspecified) | > 100 µM
* Cc1nc(Nc2ccccc2Cl)sc1C(=O)CC(=O)C(N)=O | 33.7 µM
* O=C(O)c1cc(-c2ccccc2O)nc2ccccc12 | > 100 µM
* COc1cc(N(CCC#N)CCC#N)ccc1/C=N\NC(=O)c1ccc(C)cc1 | > 100 µM
* CC(C)=CCC/C(C)=C/CC/C(C)=C/CCN(C)CCO | 3.95 µM
* O=c1cnn(C/C=C/CP(=O)(O)O)c(=O)[nH]1 | > 100 µM
* COC1CC(OC2C(C)OC(OC3C(C)OC(OC4C(C)OC(O[C@H]5CC[C@@]6(C)C(=CC[C@]7(O)[C@@H]6C[C@@H](O)[C@@]6(C)[C@]7(O)CC[C@@]6(O)C(C)=O)C5)CC4OC)CC3OC)CC2OC)OC(C)C1O (stereo partly specified) | > 12.5 µM
* O=C(CCBr)N1CCN(C(=O)CCBr)CC1 [PIPOBROMAN] | 83.8 µM
* CCC(C)(C)NC1=C(NC(C)=O)C(=O)c2ccccc2C1=O | 32.9 µM
* Oc1cc(N2CCCC2)ccc1/C=N/N1C(=S)N(c2ccccc2)C(=N\c2ccccc2)/C1=N/c1ccccc1 | > 100 µM
* C1CNCCN2CCCNCCN(C1)CC2 | > 100 µM

====

Tested on: Malme-3M
Assay: NCI tumour cell line growth inhibition, 48 h
The source made the active and inactive calls. No stated cut-off is given here; in the data, active = GI50 up to about 1.1 µM and inactive = higher. Where a SMILES comes first, the peptide text is derived from it. [ ]: non-standard residue; d: D form. The star is where a group is joined. ξ: configuration not given here. ξF = NC(Cc1ccccc1)C(=O)O; Cbz = O=C(OCc1ccccc1)*; Aib = CC(C)(N)C(=O)O; NHNH2 = NN*
Possible outcomes: active, inactive

- CC(C)(NC(=O)OCc1ccccc1)C(=O)NC(Cc1ccccc1)C(=O)NN (stereo not given) (Cbz-[Aib]-[ξF]-NHNH2): inactive
- O=C(Nc1cccc(NC(=O)c2cc(=O)c3ccccc3o2)n1)c1cc(=O)c2ccccc2o1: inactive
- Cc1ccc(NC(=O)CC(=O)n2nc(-c3ccccc3)c(/N=N/c3ccccc3C(=O)O)c2-c2ccccc2)cc1: inactive
- COc1cc2c(c(OC)c1OC)-c1ccc(SC)c(=O)cc1[C@@H](OC(=O)c1ccncc1)CC2: active
- CC(C)OP(=O)(OC(C)C)/C(=N/Nc1ccc([N+](=O)[O-])cc1)NNC(=O)c1ccccc1: inactive
- NC1CCC(N(CC(=O)O)CC(=O)O)C(N(CC(=O)O)CC(=O)O)C1 (stereo not given): inactive
- CN(C(=O)/C=C/c1ccccc1)C1C2CN3CCC(O2)C13 (stereo not given): inactive
- NNC(=O)c1nn[nH]c1C(=O)NN: inactive
- CCOc1ccc(NC(=O)C(=O)Nn2c(N)nnc2N)cc1: inactive
- Cc1nnc2n1N=C(c1ccc(-c3ccc([N+](=O)[O-])cc3)o1)CS2: inactive

====

Test system: SF-268
Experiment: NCI tumour cell line growth inhibition, 48 h
Active and inactive are the calls of the source. Rule as the data show it: active = GI50 up to about 1.1 µM and inactive = higher.
Parameter GI50: see the listing below.
MEASURED_METRIC: GI50

- CCOC(=O)c1cc(C2(O)CCN(CC(C)CC)C2=O)c(-c2cc(C)no2)[nH]1 (stereo not given): > 100 µM (inactive)
- COC(=O)[C@@H]1CO[C@H](C(C)(C)C)N1C(=O)N1C=CC(=O)C[C@H]1C: > 100 µM (inactive)
- Nc1c2ccccc2nc2ccc3c(=O)cc(-c4ccccc4)oc3c12: 1.22 µM (inactive)
- COC(=O)/C(=C1\OC(=O)C(c2ccc(Cl)cc2)=C1O)c1ccc(Cl)cc1: 22.3 µM (inactive)
- CC(C)CC/N=c1/cc2n(-c3ccc(Cl)cc3)c3ccccc3nc-2cc1Nc1ccc(Cl)cc1: 27.5 µM (inactive)
- CC12CC[C@@H](C(C)(C)O)C1[C@@H](O)CC1(C)C2CCC2[C@@]3(C)CC[C@H](O)C(C)(C)C3C(O)C[C@]21C (stereo not given in full): 14.9 µM (inactive)
- CC1OC(OC2C(O)C(O)C(O)C(O)C2O)C(N)CC1NC(=N)C(=O)O (stereo not given): > 100 µM (inactive)
- CCOC(=O)CNc1nnnn1C1OC(CO)C(O)C1O (stereo not given): > 100 µM (inactive)
- Oc1ccc(O)c(-n2cccn2)c1: 85.9 µM (inactive)
- O=C(CNc1ccc(Cl)cc1Cl)Nn1c(-c2ccccc2)nc2ccccc2c1=O: 3.86 µM (inactive)

====

Tested on: SNB-75
Experiment: NCI tumour cell line growth inhibition, 48 h
Calls of active or inactive are those of the source. Cut-off read from the data, not from the text of the source: active = GI50 up to about 1.1 µM and inactive = higher.
Parameter GI50: see the listing below.
MEASURED_METRIC: GI50

* Cc1cn(CCCCCCOC(=O)NC(CCCNC(N)=O)C(=O)O)c(=O)[nH]c1=O (stereo not given) | > 100 µM (inactive)
* NC1(CCNC(=O)c2ccccc2)CCN(C(=O)c2ccccc2)CC1 | 0.548 µM (active)
* Nc1nc(N)nc(-c2ccccc2NS(=O)(=O)c2ccc([N+](=O)[O-])cc2)n1 | > 52.2 µM (inactive)
* O=C(CCc1n[nH]c(=S)o1)Nc1ccc(Cl)cc1Cl | > 100 µM (inactive)
* COc1ccc(-c2cc(-c3ccco3)c(C#N)c(=O)[nH]2)cc1 | 18 µM (inactive)
* O=C(CCBr)N1CCN(C(=O)CCBr)CC1 | 71.4 µM (inactive)
* O=S(=O)(c1ccc2ccccc2c1)N1CCN(S(=O)(=O)c2ccc3ccccc3c2)CC1 | 18.9 µM (inactive)
* CS(=O)(=O)CSCSSCS(C)(=O)=O | > 63.4 µM (inactive)
* COC(=O)C1C(OCc2ccccc2)C2CCC1(OC)C=C2C (stereo not given) | > 100 µM (inactive)
* C[C@]12CC[C@H](O)CC1=CC[C@@H]1[C@@H]2CC[C@]2(C)C(=N/N)/C(=N\O)C[C@@H]12 | 7.5 µM (inactive)
